- tested_target: human norepinephrine transporter (Homo sapiens, UniProt P23975)
- Construct: host or cells: HEK-293
- Sequence (P23975 whole entry): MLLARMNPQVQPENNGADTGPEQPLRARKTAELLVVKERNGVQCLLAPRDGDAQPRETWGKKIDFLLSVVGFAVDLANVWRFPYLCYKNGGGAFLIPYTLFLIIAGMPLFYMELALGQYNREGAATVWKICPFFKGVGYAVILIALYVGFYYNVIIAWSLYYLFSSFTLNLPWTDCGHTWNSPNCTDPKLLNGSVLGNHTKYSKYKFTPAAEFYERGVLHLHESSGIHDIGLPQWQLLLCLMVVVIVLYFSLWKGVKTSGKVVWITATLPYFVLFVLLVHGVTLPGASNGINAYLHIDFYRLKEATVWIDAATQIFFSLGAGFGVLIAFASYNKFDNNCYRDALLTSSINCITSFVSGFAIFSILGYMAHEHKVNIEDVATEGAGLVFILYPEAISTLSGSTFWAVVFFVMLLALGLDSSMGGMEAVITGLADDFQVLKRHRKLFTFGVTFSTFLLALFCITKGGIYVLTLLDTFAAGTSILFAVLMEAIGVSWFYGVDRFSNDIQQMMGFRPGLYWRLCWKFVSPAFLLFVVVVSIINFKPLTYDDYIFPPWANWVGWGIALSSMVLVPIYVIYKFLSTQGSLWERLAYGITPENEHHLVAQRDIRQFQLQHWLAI
- test_details: hNET receptor binding ([125I]-RTI-55 radioligand binding)
- condition_label: membranes of HEK-293 cells transfected with human norepinephrine transporter, IC50 converted to Ki by Cheng-Prusoff, read-out: hNET (Ki)
property_label: Ki (nM)
Write the number in nM without appending the unit.

// solved cases for Ki follow
> print(dat)
                                   molecule                             tested.target  unit.text  measured.number
1   Brc1ccccc1O[C@@H](c1ccccc1)[C@H]1CNCCO1  human norepinephrine transporter (Homo sapiens, UniProt P23975)         nM               21
2  CC(C)c1ccccc1O[C@@H](c1ccccc1)[C@@H]1CNCCO1  human norepinephrine transporter (Homo sapiens, UniProt P23975)         nM              5.3
3  CC(C)Cc1ccccc1O[C@@H](c1ccccc1)[C@@H]1CNCCO1  human norepinephrine transporter (Homo sapiens, UniProt P23975)         nM               33
4  Fc1cccc(F)c1OC(c1ncco1)[C@@H]1CNCCO1 (mixture of isomers)  human norepinephrine transporter (Homo sapiens, UniProt P23975)         nM                9
5  Fc1ccc(Oc2nccnc2OCC2CNCCO2)cc1 (stereo in doubt)  human norepinephrine transporter (Homo sapiens, UniProt P23975)         nM             7970

Query: Give Ki for the following molecule: Fc1ccc(OC(C2CC2)[C@@H]2CNCCO2)c(F)c1 (mixture of isomers)
Response: 880

Query: Give the value of Ki reported for the following: CCOc1ncccc1OC(CC(C)C)[C@@H]1CNCCO1 (stereo partly drawn)
Response: 9

Query: Input COc1cccc([C@H](Oc2ccccc2OC(C)C)[C@@H]2CNCCO2)n1 , output reported Ki.
Response: 71

Query: Please look at this molecule and report its Ki: Fc1cccc(Cl)c1O[C@@H](c1ccccc1)[C@@H]1CNCCO1 [Example 113]
Response: 15

Query: Look up and state reported Ki for COc1cccc([C@H](Oc2c(F)cccc2OC)[C@@H]2CNCCO2)n1
Response: 14

Query: Using known records, supply Ki for c1ccc([C@H](Oc2ccc3occc3c2)[C@@H]2CNCCO2)cc1
Response: 31
